Where these numbers come from: patent US5763430A

Experiment: viability of lymphocytes in HIV test
Assay type: cell-based
Details: human, 20 μM
measured_endpoint: viability at 168 h, 20 µM (%)
Give a bare numeral; the unit % is implied.

# lookup: viability at 168 h, 20 µM of "CC(C)[C@@H](CC[C@@H](C)[C@H]1CC[C@H]2[C@@H]3[C@H](O)C[C@H]4C[C@@H](NCCCNCCCCNCCCN)CC[C@]4(C)[C@H]3CC[C@]12C)OS(=O)(=O)O"
90.1

====

Experiment: viability of lymphocytes in HIV test
Format: cell-based
Details: human, 0.5 μM
measured_endpoint: viability at 168 h, 0.5 µM
Your reply should be a number followed by the unit it is expressed in.

# lookup: viability at 168 h, 0.5 µM of CC(C)[C@@H](CC[C@@H](C)[C@H]1CC[C@H]2[C@@H]3[C@H](O)C[C@H]4C[C@@H](NCCCNCCCCNCCCN)CC[C@]4(C)[C@H]3CC[C@]12C)OS(=O)(=O)O [Compound 1436]
91%

====

System: S. aureus
Assay: antibiotic activity (MIC)
Assay type: cell-based
Conditions: Staphylococcus aureus; S. aureus; read-out: MIC
Recorded MIC values for a group of compounds are listed next.
Give a bare numeral; the unit µg/mL is implied.

# lookup: MIC of "C[C@H](CCC(=O)O)[C@H]1CC[C@H]2[C@@H]3CC[C@@H]4C[C@H](NCCCNCCCCNCCCN)CC[C@]4(C)[C@H]3C[C@H](O)[C@]12C"
4

// next entry
# lookup: MIC of "CC(C)CCC[C@@H](C)[C@H]1CC[C@H]2[C@@H]3CC[C@H]4C[C@@H](NCCCNCCCCNCCCN)CC[C@]4(C)[C@H]3CC[C@]12C"
16

====

Experiment: viability of lymphocytes in HIV test
Format: cell-based
Conditions: human, 10 μM
measured_endpoint: viability at 168 h, 10 µM (%)
Give a bare numeral; the unit % is implied.

# lookup: viability at 168 h, 10 µM of "CC(C)[C@@H](CC[C@@H](C)[C@H]1CC[C@H]2[C@@H]3[C@H](O)C[C@H]4C[C@@H](NCCCNCCCCNCCCN)CC[C@]4(C)[C@H]3CC[C@]12C)OS(=O)(=O)O"
95

====

Recorded MIC values for a group of compounds are listed next.
System: E. coli
Experiment: antibiotic activity (MIC)
Type: cell-based
Details: Escherichia coli; E. coli; read-out: MIC
Text: Thus, it is possible to achieve an antimicrobial steroid with or without squalamine-like pharmacological activity.
Give a bare numeral; the unit µg/mL is implied.

Worked cases, MIC given:
# lookup: MIC of COC(=O)CC[C@@H](C)[C@H]1CC[C@H]2[C@@H]3[C@H](O)C[C@@H]4C[C@@H](NCCN)CC[C@]4(C)[C@H]3CC[C@]12C [Compound 409]
64

# lookup: MIC of COC(=O)CC[C@@H](C)[C@H]1CC[C@H]2[C@@H]3C[C@@H](O)[C@H]4C[C@H](NCCCNCCCCNCCCN)CC[C@]4(C)[C@H]3CC[C@]12C [Compound 465]
32

# lookup: MIC of CC(COS(=O)(=O)O)C(=O)CC[C@@H](C)[C@H]1CC[C@H]2[C@@H]3[C@H](O)C[C@H]4C[C@@H](NCCCNCCCCN)CC[C@]4(C)[C@H]3CC[C@]12C (single isomer, unassigned) [Compound 1360]
128

More entries:
# lookup: MIC of C[C@H](CCC(=O)O)[C@H]1CC[C@H]2[C@@H]3CC[C@@H]4C[C@H](NCCN)CC[C@]4(C)[C@H]3C[C@H](O)[C@]12C [Compound 417]
64

# lookup: MIC of C[C@H](CCC(=O)O)[C@H]1CC[C@H]2[C@@H]3[C@H](O)C[C@H]4C[C@H](NCCCNCCCCN)CC[C@]4(C)[C@H]3CC[C@]12C [Compound 382]
64

# lookup: MIC of C[C@H](CCC(=O)O)[C@H]1CC[C@H]2[C@@H]3CC[C@H]4C[C@H](NCCCNCCCCN)CC[C@]4(C)[C@H]3CC[C@]12C [Compound 318]
32

# lookup: MIC of COC(=O)CC[C@@H](C)[C@H]1CC[C@H]2[C@@H]3[C@H](O)C[C@@H]4C[C@@H](NCCCNCCCCNCCCN)CC[C@]4(C)[C@H]3CC[C@]12C [Compound 411]
64

====

Test: mouse IV PK study
Assay type: in vivo
Conditions: i.v., mouse blood stream, HPLC
measured_endpoint: half-life

# lookup: half-life of "CC(C)[C@@H](CC[C@@H](C)[C@H]1CC[C@H]2[C@@H]3[C@H](O)C[C@H]4C[C@@H](NCCCNCCCCN)CC[C@]4(C)[C@H]3CC[C@]12C)OS(=O)(=O)O"
~35 min

====

Tested on: E. coli
Experiment: antibiotic activity (MIC)
Assay type: cell-based
Conditions: Escherichia coli; E. coli; read-out: MIC
Recorded MIC values for a group of compounds are listed next.

Worked cases, MIC given:
# lookup: MIC of "C[C@H](CCC(=O)O)[C@H]1CC[C@H]2[C@@H]3CC[C@@H]4C[C@H](NCCCNCCCCNCCCN)CC[C@]4(C)[C@H]3C[C@H](O)[C@]12C"
8 to 16 µg/mL

# lookup: MIC of "CC(C)CCC[C@@H](C)[C@H]1CC[C@H]2[C@@H]3CC[C@H]4C[C@H](NCCCNCCCCNCCCN)CC[C@]4(C)[C@H]3CC[C@]12C"
64 to 128 µg/mL

# lookup: MIC of "CC(C)CCC[C@@H](C)[C@H]1CC[C@H]2[C@@H]3CC[C@H]4C[C@@H](NCCCNCCCCN)CC[C@]4(C)[C@H]3CC[C@]12C"
128 to 256 µg/mL

// next entry
# lookup: MIC of "COC(=O)CC[C@@H](C)[C@H]1CC[C@H]2[C@@H]3C[C@@H](O)[C@H]4C[C@H](NCCN)CC[C@]4(C)[C@H]3CC[C@]12C"
32 to 64 µg/mL

====

Tested on: S. aureus
Assay: antibiotic activity (MIC)
Type: cell-based
Conditions: Staphylococcus aureus; S. aureus; read-out: MIC
Recorded MIC values for a group of compounds are listed next.

# lookup: MIC of CC(C)CCC[C@@H](C)[C@H]1CC[C@H]2[C@@H]3CC[C@H]4C[C@H](NCCCNCCCCN)CC[C@]4(C)[C@H]3CC[C@]12C [Compound 304]
2 to 4 µg/mL

====

Recorded MIC values for a group of compounds are listed next.
Tested on: S. aureus
Experiment: antibiotic activity (MIC)
Format: cell-based
Settings: Staphylococcus aureus; S. aureus; read-out: MIC

# lookup: MIC of COC(=O)CC[C@@H](C)[C@H]1CC[C@H]2[C@@H]3CC[C@H]4C[C@@H](NCCCNCCCCNCCCN)CC[C@]4(C)[C@H]3CC[C@]12C [Compound 459]
1 to 2 µg/mL

# lookup: MIC of CC(C)C(O)CC[C@@H](C)[C@H]1CC[C@H]2[C@@H]3[C@H](O)C[C@H]4C[C@H](NCCCNCCCCN)CC[C@]4(C)[C@H]3CC[C@]12C (some centres unmarked) [Compound 387]
16 to 32 µg/mL

More entries:
# lookup: MIC of C[C@H](CCC(=O)O)[C@H]1CC[C@H]2[C@@H]3C[C@@H](O)[C@H]4C[C@@H](NCCN)CC[C@]4(C)[C@H]3CC[C@]12C [Compound 433]
> 256 µg/mL

# lookup: MIC of CC(C)C(CC[C@@H](C)[C@H]1CC[C@H]2[C@@H]3[C@H](O)C[C@H]4C[C@H](NCCCNCCCCN)CC[C@]4(C)[C@H]3CC[C@]12C)OS(=O)(=O)O (some centres unmarked) [Compound 388, 3-Episqualamine]
2 to 4 µg/mL

# lookup: MIC of CC(C)C(O)CC[C@@H](C)[C@H]1CC[C@H]2[C@@H]3[C@H](O)C[C@H]4C[C@@H](NCCCNCCCCN)CC[C@]4(C)[C@H]3CC[C@]12C (some centres unmarked) [MSI-1232]
4 to 16 µg/mL

====

Recorded MIC values for a group of compounds are listed next.
System: E. coli
Test: antibiotic activity (MIC)
Assay type: cell-based
Settings: Escherichia coli; E. coli; read-out: MIC

Worked cases, MIC given:
# lookup: MIC of CC(C)CCC[C@@H](C)[C@H]1CC[C@H]2[C@@H]3[C@H](O)C[C@H]4C[C@H](N)CC[C@]4(C)[C@H]3CC[C@]12C [Compound 1363]
> 256 µg/mL

# lookup: MIC of C[C@H](CCC(=O)O)[C@H]1CC[C@H]2[C@@H]3CC[C@H]4C[C@@H](NCCCNCCCCN)CC[C@]4(C)[C@H]3CC[C@]12C [Compound 319]
32 to 64 µg/mL

# lookup: MIC of COC(=O)CC[C@@H](C)[C@H]1CC[C@H]2[C@@H]3C[C@@H](O)[C@H]4C[C@@H](NCCN)CC[C@]4(C)[C@H]3CC[C@]12C [Compound 432]
8 to 16 µg/mL

More entries:
# lookup: MIC of C[C@H](CCC(=O)O)[C@H]1CC[C@H]2[C@@H]3[C@H](O)C[C@H]4C[C@@H](NCCCNCCCCNCCCN)CC[C@]4(C)[C@H]3CC[C@]12C [Compound 397]
32 to 64 µg/mL
